Test system: OVCAR-8 ovarian
method.notes: NCI tumour cell line growth inhibition, 48 h; in the data active means GI50 below about 0.43 µM; inactive means the rest
Please state which outcome applies, choosing from true (1) (active), false (0) (inactive)

Problem: Hello, I am checking results. What call was entered for `COc1ccc2c(c1)/C(=C\c1c(Cl)n(C)c3ccccc13)C(=O)N2` ?
Result: false (0)

Problem: Hello, I am checking results. What call was entered for `Oc1ccc(-c2cn3cc(Cl)sc3n2)cc1` ?
Result: false (0)

Problem: Hello, I am checking results. What call was entered for `Nc1ccc(-c2nc3ccccc3o2)cc1S` ?
Result: false (0)

Problem: Hello, I am checking results. What call was entered for `COC1=CC(c2ccc[nH]2)=N/C1=C\c1[nH]c(C)c(C(C)=O)c1C` ?
Result: true (1)

Problem: Hello, I am checking results. What call was entered for `NC1=CC(=O)c2nc3ccccc3c3ccnc1c23` ?
Result: false (0)

Problem: Hello, I am checking results. What call was entered for `CCn1c(-c2nonc2N)nc2cncc(C(=O)NCCNC)c21` ?
Result: false (0)

Problem: Hello, I am checking results. What call was entered for `N#C/C(=C1C=C/C(=N\O)C(Cl)=C\1)c1ccccc1` ?
Result: false (0)

Problem: Hello, I am checking results. What call was entered for `COc1ccc(-c2nc(N3CCOCC3)c3sc(CN(C)c4ncc(C(=O)NO)cn4)cc3n2)cn1` ?
Result: true (1)

Problem: Hello, I am checking results. What call was entered for `Cc1cc2cc3cc(C)c(N)cc3[n+](C)c2cc1N` ?
Result: false (0)

Problem: Hello, I am checking results. What call was entered for `Cc1ccc(NC2=C(Cl)C(=O)N(Cc3ccccc3)C2=O)cc1Cl` ?
Result: false (0)

Problem: Hello, I am checking results. What call was entered for `C=C(C)[C@@H]1CC[C@]2(C(=O)O)CC[C@]3(C)[C@H](CC[C@@H]4[C@@]5(C)C/C(=C/c6ccc(OC)cc6)C(=O)C(C)(C)[C@@H]5CC[C@]43C)[C@@H]12` ?
Result: false (0)

Problem: Hello, I am checking results. What call was entered for `COc1ccc(CCN2CCC(Nc3nc4ccccc4n3Cc3ccc(F)cc3)CC2)cc1` ?
Result: false (0)

Problem: Hello, I am checking results. What call was entered for `COc1nc(N)nc2c1ncn2[C@@H]1O[C@H](CO)[C@@H](O)[C@@H]1O` ?
Result: false (0)

Problem: Hello, I am checking results. What call was entered for `Cc1ccc(-c2nc(N)c(C#N)c3c2CCOc2c-3ccc3ccccc23)cc1` ?
Result: false (0)

Reference source: PubChem BioAssay (NCI)
